TGI values, listed per item
tested on: NCI/ADR-RES ovarian; experiment: NCI tumour cell line growth inhibition, 48 h

[[record]]
compound = "COC(=O)C1=C(O)C(C(=O)OC)[C@]2(O)[C@H](C(=O)OC)[C@H]1C[C@@H](c1ccccc1OC)[C@H]2C(=O)OC (stereo partly specified)"
endpointresult = "8.89 µM"

[[record]]
compound = "CC(C)Cc1ccc(C(C)/C=C2\\CCC(CN3CCOCC3)C2=O)cc1 (stereo unspecified)"
endpointresult = "29.3 µM"

[[record]]
compound = "CC(C)(C)c1ccc(O)c(Br)c1"
endpointresult = "> 100 µM"

[[record]]
compound = "CSc1c(C#N)c(O)n(-c2ccc(Cl)cc2)c(=O)c1C#N"
endpointresult = "> 100 µM"

[[record]]
compound = "C=CC[Se]C(=O)c1ccccc1OC(C)=O"
endpointresult = "4.4 µM"

[[record]]
compound = "O=C1C(=O)c2ccccc2C=C1[N+](=O)[O-]"
endpointresult = "76.4 µM"


Kindly consider the entry below.
Input line: Reported TGI, compound NC(Cc1cc(Br)c(O)c(Br)c1)C(=O)O (stereo unspecified) : ____
Output line: > 100 µM

Data provenance: PubChem BioAssay (NCI)
